Assay: Induction of anti-CD3 antibodies-stimulated human CD4+ T cell activation in immunocompetent mouse assessed fold increase in CD25 expression at 90 mg/kg, po administered twice a day; note: reference of the scale not given here
Assay type: functional
fold change (FC) overview
Answer with a number only.

[ask] Which measured fold change (FC) value corresponds to Cc1cc(C(=O)Nc2cccc(C3(Cc4nncn4C)COC3)c2)nc(C2CC2)n1 ?
[reply] 1

[ask] Can you look up the measured fold change (FC) of Cn1cnnc1[C@@H]1C[C@@H]1c1cccc(N2Cc3c(cccc3C(F)(F)F)C2=O)c1 for me?
[reply] 1

[ask] Give its fold change (FC) value. Item: C[C@H](c1cc2c(c(C(F)(F)F)c1)CN(c1cccc(C3(Cc4nncn4C)COC3)c1)C2=O)N1CC[C@H](F)C1
[reply] 1
